subjectOfTest: UniProtKB P16083
Sequence (P16083 whole entry): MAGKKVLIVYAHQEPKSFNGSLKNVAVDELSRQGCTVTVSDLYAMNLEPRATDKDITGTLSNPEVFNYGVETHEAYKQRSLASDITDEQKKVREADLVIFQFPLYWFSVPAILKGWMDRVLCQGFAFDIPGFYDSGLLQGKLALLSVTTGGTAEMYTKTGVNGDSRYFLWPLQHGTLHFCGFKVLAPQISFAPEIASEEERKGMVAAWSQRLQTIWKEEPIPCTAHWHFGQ
measurementLabel: pKd
Lab note — pKd values are minus log10 of concentrations in M.

INSERT INTO assay_data (compound, measurementlabel, measured) VALUES
  ('Brc1c(Br)c(Br)c2[nH]cnc2c1Br [4,5,6,7-tetrabromo-1H-benzimidazole]', 'pKd', 7.74);

Next compound, please.
Problem: Identify pKd associated with the compound `Brc1c(Br)c(Br)c2[nH]nnc2c1Br`
Solution: 5.15
